Test system: SF-539 CNS
Experiment: NCI-60 one-dose screen, 48 h (100 = growth as untreated, 0 = no growth, -100 = all killed)
Details: 10 µM unless noted
Compounds without any hit were thinned out: in the full panel of roughly 83,000, 20% have a hit.
// reported growth for each item listed
Respond numerically; units are % and should not be typed.

1) S=C(Sc1ccc(Cl)cc1)Sc1ccc(Cl)cc1 | 37.6
2) Cc1ccccc1NC(=O)Oc1ccc(Cl)cc1C(=O)c1ccccc1 | 87.3
3) CCCCn1cnc2c(=O)[nH]cnc21 | 104
4) CN1CCCN(C(c2ccccc2)c2ccc(Cl)cc2)CC1 (configuration not stated) | 96.9
5) COC(=O)Cc1cc(COC(C)=O)ccc1C | 111

In the following, a different molecule is considered.
The reported growth of the molecule COc1ccc(C(=O)C(=O)c2ccccc2)cc1 was 117

Provenance of the data: PubChem BioAssay (NCI)
